Entries and their AC50 values follow.
experiment: non-covalent RecA intein splicing inhibitors, dose response, biochemical, cell-free, fluorescence, secondary screen (AID 449750)
The source made the active and inactive calls. How the calls were made is not given here.

I have this compound here, COc1ccc(Nc2ccc3c(c2)=NC2(CCCCC2)[N+]=3[O-])cc1 , and I need its recorded AC50. 15 µM

Try this compound next: O=C(CCl)N(Cc1ccccc1)c1ccccc1 4.16 µM

Try this compound next: COc1cc(C(=O)CSc2nnc(-c3ccc(O)cc3)n2CC2CCCO2)ccc1NC(C)=O (stereo unspecified) > 38 µM (inactive)

Try this compound next: O=C(NNC(=O)c1ccc2ccccc2c1O)c1ccccc1Cl > 38 µM (inactive)

Try this compound next: Cc1ccc(C2C(C#N)=C(N)Oc3n[nH]c(-c4ccccc4)c32)o1 (stereo unspecified) > 38 µM (inactive)

Try this compound next: COc1ccccc1/C=C/C1(C(=O)NC2CCCC2)CC(=O)N1c1ccc(C)cc1 (stereo unspecified) 13.3 µM

Try this compound next: C=CCNC1=C(Cl)C(=O)c2ccccc2C1=O 18.4 µM
